src = patent EP3800188A1

assay_explanation: Metabolic stability in human liver microsomes
stated_conditions: maximal oral bioavailability calculated with well stirred liver model; 1 µM compound, 0.5 mg/mL protein; '(stable)' given beside 100
parameter_measured: Fmax, human microsomes (%)

structure_string=C[C@]1(O)C[C@@H](Nc2nc(N3CC(N4CCOCC4)C3)c3cnn(-c4cccc(C(F)(F)F)c4)c3n2)C1 readout_number=76
structure_string=CC(C)(O)C1CCN(c2nc(N[C@H]3C[C@](C)(O)C3)nc3c2cnn3-c2cccc(C(F)(F)F)c2)CC1 readout_number=97
structure_string=O=C1CCCN1C1CN(c2nc(N[C@H]3C[C@@H](O)C3)nc3c2cnn3-c2cccc(C(F)(F)F)c2)C1 readout_number=71
structure_string=CC(C)(O)CC1CN(c2nc(NC3CN(S(C)(=O)=O)C3)nc3c2cnn3-c2cccc(C(F)(F)F)c2)C1 readout_number=99
structure_string=CC(C)(O)C1CN(c2nc(N[C@H]3C[C@H](S(C)(=O)=O)C3)nc3c2cnn3-c2cccc(C(F)(F)F)c2)C1 readout_number=83
structure_string=CC1(O)CCN(C2CN(c3nc(N[C@H]4C[C@@H](O)C4)nc4c3cnn4-c3cccc(C(F)(F)F)c3)C2)CC1 readout_number=75
structure_string=CC(C)(O)C1CCN(c2nc(NC3CCS(=O)(=O)CC3)nc3c2cnn3-c2cccc(C(F)(F)F)c2)CC1 readout_number=93
